- Tested on: CMM-forming enzyme
- assay text: Effects of metal ions on the enzyme activity
- Assay type: biochemical, Arthrobacter globiformis M6
- applied conditions: CMM-forming enzyme activity in the presence of 1 mM metal salt; None = 100
value kind: Relative activity (%)
Please reply with the bare figure in % and do not write the unit itself.

Reference set, count: 5
INSERT INTO results (given_smiles, reported) VALUES
  ('[Cl][Ni][Cl]', 90),
  ('[Cl-].[Cl-].[Zn+2]', 73),
  ('[Cl][Cu][Cl]', 1),
  ('[Cl][Pb][Cl]', 36),
  ('[Cl-].[Cl-].[Mg+2]', 98);

Ask: Quick one: Relative activity (%) of `[Ca+2].[Cl-].[Cl-]` ?
Result: 99

* * *

- System: CMM-forming enzyme
- assay text: Effects of metal ions on the enzyme activity
- Format: biochemical, Arthrobacter globiformis M6
- applied conditions: 1 mM
value kind: Effect on CMM-forming enzyme activity

Reference set, count: 4
INSERT INTO results (given_smiles, reported) VALUES
  ('[Cl][Al]([Cl])[Cl]', 'inhibited'),
  ('[Cl][Cu][Cl]', 'remarkably inhibited'),
  ('[Cl][Pb][Cl]', 'inhibited'),
  ('[Cl][Fe]([Cl])[Cl]', 'inhibited');

Please look at the following molecule next.
Ask: So what Effect on CMM-forming enzyme activity did `[Cl][Hg][Cl]` get with CMM-forming enzyme?
Result: remarkably inhibited

* * *

- System: CMM-forming enzyme
- assay text: Action on various saccharides (substrate specificity, TLC)
- Type: biochemical, Arthrobacter globiformis M6
- Set-up: key: “−” means “Not changed”; “+” means “Spot of substrate is slightly decreased and other products are detected”; “++” means “Spot of substrate is markedly decreased and other products are detected”; “+++” means “Spot of substrate is virtually disappeared and other products are detected”
- applied conditions: substrate 2% (w/v), one unit/g-substrate enzyme, 40° C., pH 6.0, 24 hours, TLC before and after reaction
value kind: Action

Reference set, count: 5
INSERT INTO assay_data (compound, reported) VALUES
  ('OC[C@H]1O[C@@H]2O[C@H]3[C@H](O)[C@@H](O)[C@@H](O[C@H]4[C@H](O)[C@@H](O)[C@@H](O[C@H]5[C@H](O)[C@@H](O)[C@@H](O[C@H]6[C@H](O)[C@@H](O)[C@@H](O[C@H]7[C@H](O)[C@@H](O)[C@@H](O[C@H]8[C@H](O)[C@@H](O)[C@@H](O[C@H]1[C@H](O)[C@H]2O)O[C@@H]8CO)O[C@@H]7CO)O[C@@H]6CO)O[C@@H]5CO)O[C@@H]4CO)O[C@@H]3CO', '−'),
  ('OC[C@H]1O[C@H](O[C@H]2[C@H](O)[C@@H](CO)OC(O)[C@@H]2O)[C@H](O)[C@@H](O)[C@@H]1O (stereo partly drawn)', '−'),
  ('OC[C@H]1O[C@H](O[C@H]2[C@H](O)[C@@H](O)[C@@H](O[C@H]3[C@H](O)[C@@H](O)[C@@H](O[C@H]4[C@H](O)[C@@H](O)C(O)O[C@@H]4CO)O[C@@H]3CO)O[C@@H]2CO)[C@H](O)[C@@H](O)[C@@H]1O (stereo partly drawn)', '+++'),
  ('OC[C@H]1O[C@H](O[C@H]2O[C@H](CO)[C@@H](O)[C@H](O)[C@H]2O)[C@H](O)[C@@H](O)[C@@H]1O', '−'),
  ('OC[C@H]1O[C@H](OC[C@H]2O[C@H](OC[C@H]3OC(O)[C@H](O)[C@@H](O)[C@@H]3O)[C@H](O)[C@@H](O)[C@@H]2O)[C@H](O)[C@@H](O)[C@@H]1O (stereo partly drawn)', '−');

Please look at the following compound next.
Ask: Quick one: Action of `OC[C@@H](O)[C@@H](O[C@H]1O[C@H](CO)[C@@H](O)[C@H](O)[C@H]1O)[C@H](O)[C@@H](O)CO` ?
Result: −
